Reference for the values: patent US5624923A

Entries and their IC50
Biological target: Rat Hepatic V1 Receptors (Rattus norvegicus, UniProt P30560)
Construct: Rat liver plasma membranes expressing the vasopressin V1 receptor subtypes; from tissue; host or cells: rat liver plasma membranes
Sequence (P30560 whole entry): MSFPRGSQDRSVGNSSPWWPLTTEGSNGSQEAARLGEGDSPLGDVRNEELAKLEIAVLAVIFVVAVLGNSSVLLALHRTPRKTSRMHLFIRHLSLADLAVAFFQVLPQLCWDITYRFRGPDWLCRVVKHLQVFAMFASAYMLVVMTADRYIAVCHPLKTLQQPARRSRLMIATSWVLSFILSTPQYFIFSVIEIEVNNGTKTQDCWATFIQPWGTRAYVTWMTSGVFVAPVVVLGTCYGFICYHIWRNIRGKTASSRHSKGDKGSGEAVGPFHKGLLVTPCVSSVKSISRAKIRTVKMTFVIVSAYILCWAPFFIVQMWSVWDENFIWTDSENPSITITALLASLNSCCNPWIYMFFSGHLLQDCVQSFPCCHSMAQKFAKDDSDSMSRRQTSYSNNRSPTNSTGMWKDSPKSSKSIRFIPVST
Assay: Binding Assay to Rat Hepatic V1 Receptors
Conditions: rat liver membranes; read-out: V1 IC50
Answer in nM, number only, no unit symbol.

Example results:
O=C(c1ccc(NS(=O)(=O)Cc2ccccc2)cc1)N1Cc2cccn2Cc2ccccc21 [Example 494] ... 110
NC(=O)CNC(C(=O)Nc1ccc(C(=O)N2Cc3cccn3Cc3ccccc32)cc1)c1ccccc1 (stereo not shown) [Example 585] ... 280
CC(=O)OC(C(=O)Nc1ccc(C(=O)N2Cc3cccn3Cc3ccccc32)cc1)c1ccccc1 (stereo not shown) [Example 587] ... 67
O=C(Nc1ccc(C(=O)N2Cc3cccn3Cc3ccccc32)cc1)c1ccc(Cl)cc1Cl [Example 6] ... 23
O=C(Nc1ccc(C(=O)N2Cc3ccc(CO)n3Cc3ccccc32)cc1)c1ccc(Cl)cc1Cl [Example 581] ... 21
O=C(Nc1ccc(C(=O)N2Cc3cccn3Cc3ccccc32)cc1)c1ccccc1C(F)(F)F [Example 91] ... 26

Summary for this molecule, CSc1ccccc1C(=O)Nc1ccc(C(=O)N2Cc3cccn3Cc3ccccc32)cc1 [Example 85] : IC50 is 9

Summary for this molecule, Cc1cccc(C(=O)Nc2ccc(C(=O)N3Cc4cccn4Cc4ccccc43)cc2)c1C [Example 467] : IC50 is 31

Summary for this molecule, O=C(Nc1ccc(C(=O)N2Cc3cccn3Cc3ccccc32)cc1)C(O)c1ccccc1 (racemic) [Example 588] : IC50 is 40

Summary for this molecule, O=C(Nc1ccc(C(=O)N2Cc3ccc(Cn4ccnc4)n3Cc3ccccc32)cc1)c1ccc(Cl)cc1Cl [Example 582] : IC50 is 130

Summary for this molecule, Cc1ccccc1C(=O)N(C)c1ccc(C(=O)N2Cc3cccn3Cc3ccccc32)cc1 [Example 384] : IC50 is 188

====

Entries and their IC50
Molecular target: Rat Hepatic V1 Receptors (Rattus norvegicus, UniProt P30560)
Construct: Rat liver plasma membranes expressing the vasopressin V1 receptor subtypes; from tissue; host or cells: rat liver plasma membranes
Assay: Binding Assay to Rat Hepatic V1 Receptors
Details: rat liver membranes; read-out: V1 IC50
Answer in nM, number only, no unit symbol.

Example results:
O=C(c1ccc(NS(=O)(=O)c2cc(Cl)ccc2Cl)cc1)N1Cc2cccn2Cc2ccccc21 ... 140
Cc1cc(C(=O)N2Cc3cccn3Cc3ccccc32)ccc1NC(=O)c1ccc(Cl)cc1Cl ... 27
CN(C)CN(C(=O)c1ccc(Cl)cc1Cl)c1ccc(C(=O)N2Cc3cccn3Cc3ccccc32)cc1 ... 14
Cc1ccccc1C(=O)Nc1ccc(C(=O)N2Cc3cccn3-c3ccccc32)cc1 ... 170
O=C(Nc1ccc(C(=O)N2Cc3ccc(CN4CCCC4)n3Cc3ccccc32)cc1)c1ccc(Cl)cc1Cl ... 56

Summary for this compound, Cc1ccc(C(=O)Nc2ccc(C(=O)N3Cc4cccn4Cc4ccccc43)cc2)s1 : IC50 is 165

Summary for this compound, CCOc1ccccc1C(=O)Nc1ccc(C(=O)N2Cc3cccn3Cc3ccccc32)cc1 : IC50 is 45

Summary for this compound, CN(C)Cc1ccc2n1Cc1ccccc1N(C(=O)c1ccc(NC(=O)c3ccc(Cl)cc3Cl)cc1)C2 : IC50 is 120

Summary for this compound, Cc1ccccc1C(=O)Nc1ccc(C(=O)N2CCc3cccn3-c3ccccc32)cc1 : IC50 is 270

Summary for this compound, O=C(Nc1ccc(C(=O)N2Cc3cccn3Cc3ccccc32)cc1)c1c(Cl)cccc1Cl : IC50 is 94

Summary for this compound, Cc1ccccc1C(=O)Nc1ccc(C(=O)N2Cc3ccc(CN4CCOCC4)n3Cc3ccccc32)cc1 : IC50 is 40

Summary for this compound, O=C(Nc1ccc(C(=O)N2Cc3cccn3Cc3ccccc32)cc1)c1cccc(C(F)(F)F)c1 : IC50 is 87

Summary for this compound, CN(C)CCSC(C(=O)Nc1ccc(C(=O)N2Cc3cccn3Cc3ccccc32)cc1)c1ccccc1 (centres unmarked) : IC50 is 1200

Summary for this compound, O=C(Nc1ccc(C(=O)N2Cc3cccn3Cc3ccccc32)cc1)C1CC=CCC1 (centres unmarked) : IC50 is 12

Summary for this compound, Cc1ccccc1C(=O)Nc1ccc(C(=O)N2Cc3cccn3Cc3ccccc32)c(Cl)c1 : IC50 is 54

Summary for this compound, COC(=O)c1ccc2n1Cc1ccccc1N(C(=O)c1ccc(NC(=O)c3ccc(Cl)cc3Cl)cc1)C2 : IC50 is 210

Summary for this compound, O=C(Cc1ccccc1F)Nc1ccc(C(=O)N2Cc3cccn3Cc3ccccc32)cc1 : IC50 is 19

Summary for this compound, O=C(Cc1ccccc1Cl)Nc1ccc(C(=O)N2Cc3cccn3Cc3ccccc32)cc1 : IC50 is 7

Summary for this compound, COc1ccccc1C(=O)Nc1ccc(C(=O)N2Cc3cccn3Cc3ccccc32)cc1 : IC50 is 31

Summary for this compound, Cc1ccccc1C(=O)Nc1ccc(C(=O)N2Cc3ccc(CN(C)C)n3Cc3ccccc32)cc1 : IC50 is 73

Summary for this compound, Cc1c(F)cccc1C(=O)Nc1ccc(C(=O)N2Cc3cccn3Cc3ccccc32)cc1 : IC50 is 26

Summary for this compound, Cc1ccccc1C(=O)Nc1ccc(C(=O)N2Cc3cccn3Cc3ccccc32)cc1 : IC50 is 38

Summary for this compound, O=C(Nc1ccc(C(=O)N2Cc3cccn3Cc3ccccc32)cc1)c1ccc2[nH]ccc2c1 : IC50 is 2770

Summary for this compound, CCOC(=O)c1ccc2n1Cc1ccccc1N(C(=O)c1ccc(NC(=O)c3ccc(Cl)cc3Cl)c(C)c1)C2 : IC50 is 3300

Summary for this compound, Cc1cccc(C(=O)Nc2ccc(C(=O)N3Cc4cccn4-c4ccccc43)cc2)c1C : IC50 is 930

Summary for this compound, Cc1ccccc1NC(=O)c1ccc(C(=O)N2Cc3cccn3Cc3ccccc32)cc1 : IC50 is 97

Summary for this compound, O=C(Nc1ccc(C(=O)N2Cc3cccn3Cc3ccccc32)cc1)C1CCCO1 (centres unmarked) : IC50 is 420

====

Entries and their Average Change
Test system: Vasopressin V1
Test: Vasopressin V1 Antagonist Activity in Conscious Rats (vasopressin vasopressor response)
Assay type: in vivo, rat
Set-up: unit not given here
Details: 20 mg/kg i.v., VAS 0.02 i.u./kg, 180 min, SHR
The answer should be written as a number, with no unit following it.

Cc1c(CC(=O)Nc2ccc(C(=O)N3Cc4cccn4Cc4ccccc43)cc2)sc2ccccc12 ... 37.5
Cc1cc(C(=O)N2Cc3cccn3Cc3ccccc32)ccc1N ... 34
O=C(Nc1ccc(C(=O)N2Cc3cccn3Cc3ccccc32)cc1)c1ccc2[nH]ccc2c1 ... 46

Now take the following molecule into account.
# Average Change measured on Vasopressin V1 for item O=C(Nc1ccc(C(=O)N2Cc3cccn3Cc3ccccc32)cc1)c1sc2ccccc2c1Cl = 43.5

====

Test system: Vasopressin V1
Assay: Vasopressin V1 Antagonist Activity in Conscious Rats (vasopressin vasopressor response)
Type: in vivo, rat
Parameters: unit not given here
Conditions: 10 mg/kg i.v., VAS 0.01 i.u./kg, 120 min, SHR
Entries and their Average Change

Cc1ccccc1C(=O)Nc1ccc(C(=O)N2Cc3cccn3-c3ccccc32)cc1 ... 26.5
CSc1ccccc1C(=O)Nc1ccc(C(=O)N2Cc3cccn3Cc3ccccc32)cc1 ... 9
CCOc1ccccc1C(=O)Nc1ccc(C(=O)N2Cc3cccn3Cc3ccccc32)cc1 ... 19.5

# Average Change measured on Vasopressin V1 for item O=C(Nc1ccc(C(=O)N2Cc3cccn3Cc3ccccc32)cc1)c1ccc(Cl)cc1Cl = 15

# Average Change measured on Vasopressin V1 for item COc1ccccc1C(=O)Nc1ccc(C(=O)N2Cc3cccn3Cc3ccccc32)cc1 = 9.5

# Average Change measured on Vasopressin V1 for item O=C(Cc1ccccc1F)Nc1ccc(C(=O)N2Cc3cccn3Cc3ccccc32)cc1 = 8

# Average Change measured on Vasopressin V1 for item O=C(Nc1ccc(C(=O)N2Cc3cccn3Cc3ccccc32)cc1)c1ccccc1Cl = 9.5

====

Entries and their pIC50
Molecular target: Rat Hepatic V1 Receptors (Rattus norvegicus)
Construct: Rat liver plasma membranes expressing the vasopressin V1 receptor subtypes; from tissue; host or cells: rat liver plasma membranes
Experiment: Binding Assay to Rat Hepatic V1 Receptors
Settings: rat liver membranes; read-out: V1 IC50
Scale explanation: pIC50 corresponds to minus log10 of a concentration expressed in moles per litre.

Example results:
Cc1ccccc1C(=O)Nc1ccc(C(=O)N2Cc3cccn3C(=O)c3ccccc32)cc1 ... 5.62
Cc1ccccc1CC(=O)Nc1ccc(C(=O)N2Cc3cccn3-c3ccccc32)cc1 ... 7.00
Cc1ccccc1C(=O)Nc1ccc(C(=O)N2Cc3ccnn3Cc3ccccc32)cc1 ... 7.24

Now take the following molecule into account.
Summary for this molecule, Cc1ccccc1C(=O)Nc1ccc(C(=O)N2Cc3ccc(CN4CCCCC4)n3Cc3ccccc32)cc1 : pIC50 is 7.24

====

Target: oxytocin receptors (Rattus norvegicus, UniProt P70536)
Construct: The uteri are dissected out, cleaned of fat and connective tissues; from tissue; host or cells: uterus of DES-treated female Sprague-Dawley rats
Sequence (P70536 whole entry): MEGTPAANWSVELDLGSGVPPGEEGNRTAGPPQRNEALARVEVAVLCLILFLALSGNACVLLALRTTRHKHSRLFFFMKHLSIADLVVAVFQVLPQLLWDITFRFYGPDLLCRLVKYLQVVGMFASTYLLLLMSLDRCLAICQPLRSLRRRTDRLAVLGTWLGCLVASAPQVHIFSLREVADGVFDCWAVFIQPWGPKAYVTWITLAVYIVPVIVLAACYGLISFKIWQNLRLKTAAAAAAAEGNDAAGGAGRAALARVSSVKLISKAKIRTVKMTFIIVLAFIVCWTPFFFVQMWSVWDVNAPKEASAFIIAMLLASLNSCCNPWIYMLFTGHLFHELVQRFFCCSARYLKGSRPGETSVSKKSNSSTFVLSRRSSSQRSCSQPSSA
Assay: Oxytocin Receptor Binding
Conditions: dose 10 μM, [3H]oxytocin
measurement-kind: inhibition at 10 µM (%)
Answer in %, number only, no unit symbol.

O=C(Nc1ccc(C(=O)N2Cc3cccn3Cc3ccccc32)cc1)c1cc(Cl)cc(Cl)c1Cl ... 92

# inhibition at 10 µM measured on oxytocin receptors (Rattus norvegicus, UniProt P70536) for item Cc1c(F)cccc1C(=O)Nc1ccc(C(=O)O)c(Cl)c1 = 16

# inhibition at 10 µM measured on oxytocin receptors (Rattus norvegicus, UniProt P70536) for item O=C(Nc1ccc(C(=O)N2Cc3cccn3Cc3ccccc32)cc1)c1cccc(Cl)c1Cl = 96

# inhibition at 10 µM measured on oxytocin receptors (Rattus norvegicus, UniProt P70536) for item COc1cc(C(=O)N2Cc3cccn3Cc3ccccc32)ccc1[N+](=O)[O-] = 75
